compounds and their reported melting point

COMPOUND: O=C(O)C1CCc2c([nH]c3ccc(F)cc23)C1 (stereo unspecified)
melting point: > 200 °C
//
COMPOUND: CN1CCN(c2ccc(C(=O)NCCCCCCCCCCCCO[N+](=O)[O-])cn2)CC1
melting point: 74 to 76 °C
//
COMPOUND: O=C(NC1CCN(CCCOC(=O)c2ccccc2)CC1)c1ccccc1
melting point: 146 to 147 °C
//
COMPOUND: CC1=NC(NC(=O)Nc2cccc(C)n2)C(=O)N(CC(=O)N2CC3CCC(CC3)C2)c2c(C)cccc21 (stereo unspecified)
melting point: 151 to 152 °C
//
COMPOUND: Cc1cn(C(C)C(=O)Nc2ccccc2)nc1-c1ccccc1 (stereo unspecified)
melting point: 79 to 82 °C
//
COMPOUND: CC(=O)Nc1nc(N)nc(NC2CC2)n1
melting point: 190 to 195 °C
//
COMPOUND: COc1ccc(C(=O)N2CCCC3=C2CCc2cc(Cl)ccc23)cc1
melting point: 182 to 183 °C
//
COMPOUND: O=C(O)C1CC(=O)N(Cc2ccccc2)C1c1ccccc1 (stereo unspecified)
melting point: 169 to 171 °C

Please report the recorded melting point for CCN(CCc1coc2c(OC)cccc12)C1COc2c(F)ccc(C(N)=O)c2C1 (stereo unspecified) . 124 to 132 °C

Please report the recorded melting point for `O=C(/C=C/c1ccc(NS(=O)(=O)c2ccc(-c3ccccc3)cc2)cc1)NO` . 190 to 192 °C

Please report the recorded melting point for O=C1N[C@H](Cc2cccc(OC(F)(F)C(F)F)c2)[C@H](c2ccc(Oc3ccccc3)cc2)O1 (racemic) . 90 to 91 °C

Please report the recorded melting point for `CCCOc1ccc(C(=O)OC)cc1-c1ccc(C#N)c(=O)[nH]1` . 201 to 203 °C

Please report the recorded melting point for C=CC1CCC2C3CCC4=CC(=O)CCC4(C)C3CCC12C (stereo unspecified) . 122 to 124 °C

Please report the recorded melting point for `CN(c1ccc(Cl)c2cc(C(N)=O)[nH]c12)S(=O)(=O)c1cccs1` . 252 to 254 °C

Please report the recorded melting point for `O=C(O)c1ccccc1Oc1ccc(C(F)(F)F)cc1NS(=O)(=O)c1cc(C(F)(F)F)cc(C(F)(F)F)c1` . 133 to 134 °C

Please report the recorded melting point for CC(Oc1ccc(-c2ccc(Cl)cc2Cl)cc1)C(O)CCc1cccnc1 (stereo unspecified) . 98 to 100 °C

Please report the recorded melting point for `Oc1cc(-c2ncc(C(F)(F)F)cc2Cl)ccc1Cl` . 105 to 107 °C

Please report the recorded melting point for `COc1nc2ccccc2cc1NC(=O)N1CCN(c2cccc3ccccc23)CC1` . 158 to 160 °C

Please report the recorded melting point for Cc1cc(O)c(C2C=CN(C)CC2)c(O)c1 (stereo unspecified) . 241 to 243 °C

Please report the recorded melting point for `Cc1c(Cl)nc2nc(SCc3ccccc3)nn2c1Cl` . 121 to 123 °C

Please report the recorded melting point for `CCCN1CCC=C(c2cccc3[nH]cc(Br)c23)C1` . 156 °C

Please report the recorded melting point for `CN(C)C=Nc1c(Cl)cc(N=Cc2c(Cl)cccc2Cl)cc1Cl` . 84 to 86 °C

Please report the recorded melting point for `CC(C)(C)[Si](C)(C)Oc1cc(Br)c2oc(-c3ccc(O[Si](C)(C)C(C)(C)C)c(F)c3)nc2c1` . 98 to 99 °C

Please report the recorded melting point for `COC(=O)Cc1ccc2c(=O)c3ccccc3ccc2c1` . 67 to 69 °C
